This collection of values is drawn from patent US20250144187A1.

Tested on: MRSE
assay details: High-throughput screening of 1953 FDA-approved compounds with human lysozyme
Format: cell-based, Staphylococcus epidermis
conditions used: compound 25 μM + 1 mg/ml lysozyme, 24-hour
Field: Growth inhibition ratio (mean ± SD, %) MRSE. Provide a value for each of the molecules that follow.
Unit % implied. Number only.

Could you tell me which Growth inhibition ratio (mean ± SD, %) MRSE is on file for CC1(C)S[C@@H]2[C@H](NC(=O)Cc3ccccc3)C(=O)N2[C@H]1C(=O)O [Benzylpenicillin potassium] ?
3.07

Consider the molecule CC1(C)S[C@@H]2[C@H](NC(=O)[C@H](N)c3ccccc3)C(=O)N2[C@H]1C(=O)OCOC(=O)[C@@H]1N2C(=O)C[C@H]2S(=O)(=O)C1(C)C [Sultamicillin] and give its measured Growth inhibition ratio (mean ± SD, %) MRSE.
45.94

If you can, please state the reported Growth inhibition ratio (mean ± SD, %) MRSE value of [H]/N=C(\N/C(=N/[H])NCCCCCCNC(=N)NC(=N)Nc1ccc(Cl)cc1)Nc1ccc(Cl)cc1 [Chlorhexidine 2HCl] .
12.3

What measured Growth inhibition ratio (mean ± SD, %) MRSE goes with CC/C=C(\C(=O)N[C@@H]1C(=O)N2C(C(=O)OCOC(=O)C(C)(C)C)=C(COC(N)=O)CS[C@H]12)c1csc(N)n1.Cl [Cefcapene Pivoxil Hydrochloride] ?
3.23

Name the recorded Growth inhibition ratio (mean ± SD, %) MRSE for CO/N=C(\C(=O)N[C@@H]1C(=O)N2C(C(=O)O)=C(Cn3ccc(=N)n3CCO)CS[C@H]12)c1csc(N)n1.O=S(=O)(O)O [Cefoselis Sulfate] .
51.56

So what's the measured Growth inhibition ratio (mean ± SD, %) MRSE for this one? CC1(C)S[C@@H]2[C@H](NC(=O)[C@H](NC(=O)N3CCN(S(C)(=O)=O)C3=O)c3ccccc3)C(=O)N2[C@H]1C(=O)O [Mezlocillin Sodium]
6.93

* * *

Would you kindly list Growth inhibition ratio (mean ± SD, %) MRSE for each of these compounds?
System: MRSE
assay details: High-throughput screening of 1953 FDA-approved compounds with human lysozyme
Format: cell-based, Staphylococcus epidermis
conditions used: compound 25 μM + 1 mg/ml lysozyme, 24-hour
Express your answer in %, writing the number without its unit.

Would you mind telling me what Growth inhibition ratio (mean ± SD, %) MRSE value was observed for CCN1CCN(C(=O)N[C@@H](C(=O)N[C@@H]2C(=O)N3C(C(=O)O)=C(CSc4nnnn4C)CS[C@H]23)c2ccc(O)cc2)C(=O)C1=O [Cefoperazone] ?
−16.2

Entry under review: CO[C@@]1(NC(=O)CSCC#N)C(=O)N2C(C(=O)O)=C(CSc3nnnn3C)CS[C@@H]21 [Cefmetazole sodium] . Reported Growth inhibition ratio (mean ± SD, %) MRSE?
6

Recorded Growth inhibition ratio (mean ± SD, %) MRSE of CC[C@H]1OC(=O)C[C@@H](O)[C@H](C)[C@@H](O[C@@H]2O[C@H](C)[C@@H](O)[C@H](N(C)C)[C@H]2O)[C@@H](CCN2C[C@H](C)C[C@H](C)C2)C[C@@H](C)C(=O)/C=C/C(C)=C/[C@@H]1CO[C@@H]1O[C@H](C)[C@@H](O)[C@@H](OC)[C@H]1OC [Tilmicosin] , please.
4.91

Value lookup for Growth inhibition ratio (mean ± SD, %) MRSE; key = CCCCCCNC(=O)n1cc(F)c(=O)[nH]c1=O [Carmofur]
78.06

* * *

Test system: MRSE
assay details: High-throughput screening of 1953 FDA-approved compounds with human lysozyme
Type: cell-based, Staphylococcus epidermis
conditions used: compound 25 μM + 1 mg/ml lysozyme, 24-hour
Method: 1) High-throughput screening. According to standard screening method [Zhong. […] Commun. […] Then, the real-time growth curvet of MRSA were monitored per hour and for 24 hours. Absorbance at 600 am (OD600) of bacterial culture at the time point of 24-hour was also measured. The inhibition ratio (%) was calculated as (ODcontrol−ODsample)/(ODcontrol−ODbackground)×100%. […]
Please go through the items and note down their Growth inhibition ratio (mean ± SD, %) MRSE.
The figure you give is taken to be in %; do not add the unit.

Value wanted: Growth inhibition ratio (mean ± SD, %) MRSE (MRSE) of entry C[C@@H](O)[C@H]1C(=O)N2C(C(=O)O)=C(S[C@@H]3CN[C@H](CNS(N)(=O)=O)C3)[C@H](C)[C@H]12 [Doripenem Hydrate]
11.18

Item CC1=C(C(=O)O)N2C(=O)[C@@H](NC(=O)[C@H](N)C3=CCC=CC3)[C@H]2SC1 with MRSE - Growth inhibition ratio (mean ± SD, %) MRSE?
33.52

Fill in the recorded Growth inhibition ratio (mean ± SD, %) MRSE for this compound, with MRSE as test system: CC(C)(O/N=C(\C(=O)N[C@@H]1C(=O)N2C(C(=O)[O-])=C(C[n+]3ccccc3)CS[C@H]12)c1csc(N)n1)C(=O)O [Ceftazidime Pentahydrate]
34.84

* * *

Tested on: MRSE
assay details: High-throughput screening of 4989 compounds with human lysozyme
Assay type: cell-based, Staphylococcus epidermis
conditions used: compound 2.5 μM + 1 mg/ml lysozyme relative to compound only
property measured: MRSE Inhibition ratio (%)
Response body: numeric value in %, unit text excluded.

Requested field: MRSE Inhibition ratio (%). Item: CC(=O)c1c(O)cc(O)c(C(C)=O)c1O
54.87

Quick one: MRSE Inhibition ratio (%) of CCOC(=O)c1ccc(O)c(O)c1 [Ethyl 3,4-dihydroxybenzoate] ?
96.68

Quick check: MRSE Inhibition ratio (%) of CCC(=O)c1ccc(O)cc1 ?
101.37

Consider the compound CO[C@H]1/C=C/O[C@@]2(C)Oc3c(C)c(O)c4c(c3C2=O)C(=O)C=C(NC(=O)/C(C)=C\C=C\[C@H](C)[C@H](O)[C@@H](C)[C@@H](O)[C@@H](C)[C@H](OC(C)=O)[C@@H]1C)C4=O and give its measured MRSE Inhibition ratio (%).
91.58

* * *

Would you kindly list Growth inhibition ratio (mean ± SD, %) MRSE for each of these compounds?
Tested on: MRSE
assay details: High-throughput screening of 1953 FDA-approved compounds with human lysozyme
Format: cell-based, Staphylococcus epidermis
conditions used: compound 25 μM + 1 mg/ml lysozyme, 24-hour
Number only, in %; omit the unit.

Record request: Growth inhibition ratio (mean ± SD, %) MRSE value, item COC(=O)[C@]12CCC(C)(C)C[C@H]1[C@H]1C(=O)C=C3[C@@]4(C)C=C(C#N)C(=O)C(C)(C)[C@@H]4CC[C@@]3(C)[C@]1(C)CC2
81.67

For the compound CO[C@@]12[C@H](COC(N)=O)C3=C(C(=O)C(C)=C(N)C3=O)N1C[C@@H]1N[C@@H]12 , what Growth inhibition ratio (mean ± SD, %) MRSE is on record?
39.12

For CO/N=C(\C(=O)N[C@@H]1C(=O)N2C(C(=O)O)=C(CSc3nc(=O)c(=O)[nH]n3C)CS[C@H]12)c1csc(N)n1 [Ceftriaxone Sodium] , what is its reported Growth inhibition ratio (mean ± SD, %) MRSE?
34.56

Look up Growth inhibition ratio (mean ± SD, %) MRSE for this compound: C=CC1=C(C(=O)O)N2C(=O)[C@@H](NC(=O)/C(=N\O)c3csc(N)n3)[C@H]2SC1
20.31

Which Growth inhibition ratio (mean ± SD, %) MRSE value belongs to N#C/C(=C1/SC[C@@H](c2ccc(Cl)cc2Cl)S1)n1ccnc1 ?
22.39

Fill blank: measured Growth inhibition ratio (mean ± SD, %) MRSE of the compound C[C@@H](O)[C@H]1C(=O)N2C(C(=O)O)=C(S[C@@H]3CN[C@H](C(=O)N(C)C)C3)[C@H](C)[C@H]12 [Meropenem Trihydrate] is ____.
20.45
